I'd be grateful if you could share measured MIC for these entries.
test system: Proteus mirabilis; assay: Tested for inhibition of visible growth of Proteus mirabilis; type: functional

For this molecule ( `CC1(C)S[C@@H]2[C@H](NC(=O)[C@H](N)c3ccc(O)cc3)C(=O)N2[C@H]1C(=O)O` ), measured MIC is 0.4 µg/mL

For this molecule ( Cc1nnc(SCC2=C(C(=O)O)N3C(=O)C(NC(=O)[C@H](N)c4ccc5c(c4)CCO5)C3SC2)s1 (some centres undefined) ), measured MIC is > 100 µg/mL

For this molecule ( CC1=C(C(=O)O)N2C(=O)C(NC(=O)[C@H](N)c3ccc4c(c3)OCCO4)C2SC1 (some centres undefined) ), measured MIC is > 100 µg/mL

For this molecule ( CC1=C(C(=O)O)N2C(=O)C(NC(=O)[C@@H](N)c3ccc4c(c3)OCO4)C2SC1 (some centres undefined) ), measured MIC is > 100 µg/mL

----------
test: Tested for the peak time in mice following 12.5 mg/kg oral dose of cephalosporin; type: ADME, organism-based; parameters: dose 12.5 mg/kg, route oral; details: mouse, in vivo, read-out: Peak time (converted)
Measure: Tmax (min)
Quick reminder: number only, in min, skip the unit.

For this molecule ( N[C@@H](C(=O)NC1C(=O)N2C(C(=O)O)=C(CSc3c[nH]nn3)CSC12)c1ccc2c(c1)OCO2 (stereo partly specified) ), measured Tmax is 20

----------
I'd be grateful if you could share measured MIC for these entries.
test: Tested for inhibition of visible growth of Salmonella schottmuelleri; format: functional

For this molecule ( N[C@@H](C(=O)NC1C(=O)N2C(C(=O)O)=C(CSc3c[nH]nn3)CSC12)c1ccc2c(c1)OCO2 (stereo partly specified) ), measured MIC is 1.6 µg/mL

For this molecule ( CC1(C)SC2C(NC(=O)[C@H](N)c3ccc4c(c3)CCO4)C(=O)N2C1C(=O)O (stereo partly specified) ), measured MIC is 1.6 µg/mL

For this molecule ( CC1=C(C(=O)O)N2C(=O)[C@@H](NC(=O)[C@H](N)c3ccccc3)[C@H]2SC1 [CEPHALEXIN ANHYDROUS] ), measured MIC is 3.1 µg/mL

For this molecule ( CC(=O)OCC1=C(C(=O)O)N2C(=O)C(NC(=O)C(O)c3ccc4c(c3)OCO4)C2SC1 (racemic) ), measured MIC is 6.2 µg/mL

For this molecule ( Cc1nnc(SCC2=C(C(=O)O)N3C(=O)C(NC(=O)[C@H](N)c4ccc5c(c4)CCO5)C3SC2)s1 (stereo partly specified) ), measured MIC is 6.2 µg/mL

For this molecule ( NC(C(=O)NC1C(=O)N2C(C(=O)O)=C(CSc3cn[nH]n3)CS[C@H]12)c1ccc2c(c1)CCO2 (stereo partly specified) ), measured MIC is 3.1 µg/mL

For this molecule ( N[C@H](C(=O)NC1C(=O)N2C(C(=O)O)=C(CSc3c[nH]nn3)CSC12)c1ccc2c(c1)OCO2 (stereo partly specified) ), measured MIC is 50 µg/mL

For this molecule ( CC1=C(C(=O)O)N2C(=O)C(NC(=O)[C@@H](N)c3ccc4c(c3)OCO4)C2SC1 (stereo partly specified) ), measured MIC is > 100 µg/mL

For this molecule ( CC1(C)SC2C(NC(=O)C(N)c3ccc4c(c3)OCO4)C(=O)N2C1C(=O)O (stereo unspecified) ), measured MIC is 1.6 µg/mL

For this molecule ( CC1(C)SC2C(NC(=O)C(C(=O)O)c3ccc4c(c3)OCO4)C(=O)N2C1C(=O)O (racemic) ), measured MIC is 50 µg/mL

For this molecule ( `CC1(C)S[C@@H]2[C@H](NC(=O)[C@H](N)c3ccc(O)cc3)C(=O)N2[C@H]1C(=O)O` ), measured MIC is 0.4 µg/mL

For this molecule ( CC(=O)OCC1=C(C(=O)O)N2C(=O)C(NC(=O)C(N)c3cccc4c3OCO4)C2SC1 (racemic) ), measured MIC is 25 µg/mL

For this molecule ( CC1=C(C(=O)O)N2C(=O)C(NC(=O)C(N)c3ccc4c(c3)OCCO4)C2SC1 (mixture of isomers) ), measured MIC is 100 µg/mL

For this molecule ( CC1=C(C(=O)O)N2C(=O)C(NC(=O)[C@H](N)c3ccc4c(c3)OCCO4)C2SC1 (stereo partly specified) ), measured MIC is 50 µg/mL

For this molecule ( CC1=C(C(=O)O)N2C(=O)C(NC(=O)[C@H](N)c3ccc4c(c3)CCO4)C2SC1 (stereo partly specified) ), measured MIC is 12.5 µg/mL

For this molecule ( CC(=O)OCC1=C(C(=O)O)N2C(=O)C(NC(=O)C(O)c3ccc4c(c3)CCO4)C2SC1 (racemic) ), measured MIC is 12.5 µg/mL

For this molecule ( CC1=C(C(=O)O)N2C(=O)C(NC(=O)C(N)c3ccc4c(c3)CCO4)C2SC1 (racemic) ), measured MIC is 50 µg/mL

For this molecule ( CC1(C)S[C@@H]2[C@H](NC(=O)C(C(=O)O)c3ccccc3)C(=O)N2[C@H]1C(=O)O (stereo partly specified) ), measured MIC is 6.2 µg/mL

For this molecule ( CC(=O)OCC1=C(C(=O)O)N2C(=O)C(NC(=O)[C@H](N)c3ccc4c(c3)CCO4)C2SC1 (stereo partly specified) ), measured MIC is 3.1 µg/mL

For this molecule ( Cn1nnnc1SCC1=C(C(=O)O)N2C(=O)C(NC(=O)[C@H](N)c3ccc4c(c3)OCO4)C2SC1 (stereo partly specified) ), measured MIC is 0.8 µg/mL

For this molecule ( Cc1nnc(SCC2=C(C(=O)O)N3C(=O)C(NC(=O)[C@@H](N)c4ccc5c(c4)OCO5)C3SC2)s1 (stereo partly specified) ), measured MIC is 50 µg/mL

For this molecule ( CC1=C(C(=O)O)N2C(=O)C(NC(=O)C(N)c3cccc4c3OCO4)C2SC1 (stereo unspecified) ), measured MIC is 100 µg/mL

For this molecule ( CC1=C(C(=O)O)N2C(=O)C(NC(=O)[C@H](N)c3ccc4c(c3)OCO4)C2SC1 (stereo partly specified) ), measured MIC is 12.5 µg/mL

For this molecule ( `CC(=O)OCC1=C(C(=O)O)N2C(=O)[C@@H](NC(=O)Cc3cccs3)[C@H]2SC1` ), measured MIC is 3.1 µg/mL

For this molecule ( Cc1nnc(SCC2=C(C(=O)O)N3C(=O)C(NC(=O)[C@H](N)c4ccc5c(c4)OCO5)C3SC2)s1 (stereo partly specified) ), measured MIC is 1.6 µg/mL

For this molecule ( CC(=O)OCC1=C(C(=O)O)N2C(=O)C(NC(=O)C(N)c3ccc4c(c3)OCO4)C2SC1 (racemic) ), measured MIC is 12.5 µg/mL

----------
I'd be grateful if you could share measured MIC for these entries.
tested on: Proteus mirabilis; experiment: Tested for inhibition of visible growth of Proteus mirabilis; format: functional
Quick reminder: number only, in µg/mL, skip the unit.

For this compound ( CC(=O)OCC1=C(C(=O)O)N2C(=O)C(NC(=O)C(O)c3ccc4c(c3)OCO4)C2SC1 (racemic) ), measured MIC is 50

For this compound ( CC1(C)SC2C(NC(=O)C(C(=O)O)c3ccc4c(c3)OCO4)C(=O)N2C1C(=O)O (racemic) ), measured MIC is 3.1

For this compound ( Cn1nnnc1SCC1=C(C(=O)O)N2C(=O)C(NC(=O)[C@H](N)c3ccc4c(c3)OCO4)C2SC1 (some centres undefined) ), measured MIC is 25

For this compound ( CC1(C)SC2C(NC(=O)C(N)c3ccc4c(c3)OCO4)C(=O)N2C1C(=O)O (centres undefined) ), measured MIC is 25

For this compound ( CC1(C)SC2C(NC(=O)[C@H](N)c3ccc4c(c3)CCO4)C(=O)N2C1C(=O)O (some centres undefined) ), measured MIC is 12.5

----------
I'd be grateful if you could share measured MIC for these entries.
system: Enterococcus faecalis; assay: Tested for inhibition of visible growth of Streptococcus faecalis; type: functional
Quick reminder: number only, in µg/mL, skip the unit.

Observed MIC on Enterococcus faecalis, entry NC(C(=O)NC1C(=O)N2C(C(=O)O)=C(CSc3cn[nH]n3)CS[C@H]12)c1ccc2c(c1)CCO2 (some centres not stated) , equals 100

Observed MIC on Enterococcus faecalis, entry CC(=O)OCC1=C(C(=O)O)N2C(=O)C(NC(=O)C(N)c3cccc4c3OCO4)C2SC1 (racemic) , equals 200

Observed MIC on Enterococcus faecalis, entry Cc1nnc(SCC2=C(C(=O)O)N3C(=O)C(NC(=O)[C@H](N)c4ccc5c(c4)OCO5)C3SC2)s1 (some centres not stated) , equals 50

Observed MIC on Enterococcus faecalis, entry CC1(C)SC2C(NC(=O)[C@H](N)c3ccc4c(c3)CCO4)C(=O)N2C1C(=O)O (some centres not stated) , equals 3.1

Observed MIC on Enterococcus faecalis, entry `CC(=O)OCC1=C(C(=O)O)N2C(=O)[C@@H](NC(=O)Cc3cccs3)[C@H]2SC1` , equals 100

Observed MIC on Enterococcus faecalis, entry N[C@@H](C(=O)NC1C(=O)N2C(C(=O)O)=C(CSc3c[nH]nn3)CSC12)c1ccc2c(c1)OCO2 (some centres not stated) , equals 50

Observed MIC on Enterococcus faecalis, entry CC(=O)OCC1=C(C(=O)O)N2C(=O)C(NC(=O)C(N)c3ccc4c(c3)OCO4)C2SC1 (racemic) , equals 200
